Listing of recorded TGI MDA-MB-231 by entry.
# System: MDA-MB-231 (breast adenocarcinoma)
# assay.details: SRB cytotoxicity assay, MDA-MB-231
# Assay type: cell-based
# measurement.conditions: 72 h, SRB; total growth inhibition; unit inferred
# From the text: Human tumor cell lines used in this study were purchased from the ATCC. A-549 (CCL-185), lung carcinoma; HT-29 (HTB-38), colorectal adenocarcinoma; MDA-MB-231 (HTB-26), breast adenocarcinoma; PSN1, pancreas adenocarcinoma. […] A colorimetric assay, using Sulforhodamine B (SRB) reaction has been adapted to provide a quantitative measurement of cell growth and viability (following the technique described by Skehan et al. J. Natl. Cancer Inst. 1990, 82, 1107-1112 […]
Structures can show the parent of a compound that is named as a salt.

1) COc1cccc2c1C(=O)c1c(O)c3c(c(O)c1C2=O)C[C@@](O)(C(=O)CO)C[C@@H]3O[C@H]1C[C@H](N)[C@H](O)[C@H](C)O1 [Doxorubicin.HCl, reference compound] ... 0.41 µM
2) O=C(OCc1ccccc1)C(Cc1ccccc1)N1C[C@@H](Cc2ccccc2)N(C(=O)OCc2ccccc2)CC1=O (stereo partly drawn) [Compound 15ab] ... > 17.8 µM
3) C[C@@H]1C(=O)N(C[C@@H](Cc2ccccc2)NC(=O)OCc2ccccc2)[C@]1(Cc1ccccc1)C(=O)OCc1ccccc1 [Compound 29a] ... > 17.3 µM
4) C[C@@H]1C(=O)N(C(Cc2ccccc2)C(=O)OCc2ccccc2)C[C@@H](Cc2ccccc2)N1C(=O)OCc1ccccc1 (stereo partly drawn) [Compound 30ab] ... > 17.3 µM
5) C[C@@H]1C(=O)N(C[C@H](Cc2ccccc2)NC(=O)OCc2ccccc2)[C@]1(Cc1ccccc1)C(=O)OCc1ccccc1 [Compound 24a] ... > 17.3 µM

// next entry
Would you kindly share the measured TGI MDA-MB-231 for O=C(OCc1ccccc1)C(Cc1ccccc1)N1C[C@H](Cc2ccccc2)N(C(=O)OCc2ccccc2)CC1=O (stereo partly drawn) [Compound 13ab] ?
> 17.8 µM
